System: LOC_OS01G10900-cb004;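 further: purified Escherichia coli-expressed rice kinase domain construct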
Test: thermal shift delta Tm vs DMSO control; higher = stronger stabilization (binding)
Conditions: 12.5 µM; protein concentration 2 µM
Measured thermal shift delta Tm of individual entries

# MOLECULE, UNIT_INFO, thermal shift delta Tm
data = [
    ("NC(=O)c1cnc(N[C@@H]2CCCC[C@@H]2N)nc1Nc1cccc(-n2nccn2)c1", "°C", -0.04),
    ("Cc1cc(Nc2cc(N3CCN(C)CC3)nc(/C=C/c3ccccc3)n2)n[nH]1 [ENMD-2076 L-(+)-Tartaric acid]", "°C", 1.86),
    ("CC(C)NC(=O)C1CCC(n2c(NC(=O)c3ccc(F)cc3)nc3ccc(CN4CCC(C(C)(C)O)CC4)cc32)CC1 (stereo unspecified)", "°C", 1.75),
    ("CO[C@H]1C[C@@H]2CC[C@@H](C)[C@@](O)(O2)C(=O)C(=O)N2CCCC[C@H]2C(=O)O[C@H]([C@H](C)C[C@@H]2CC[C@H](n3cnnn3)[C@H](OC)C2)CC(=O)[C@H](C)/C=C(\\C)[C@@H](O)[C@@H](OC)C(=O)[C@H](C)C[C@H](C)/C=C/C=C/C=C/1C", "°C", 0.11),
    ("Cc1[nH]c(/C=C2\\C(=O)Nc3ccccc32)c(C)c1CCC(=O)O [Orantinib (TSU-68, SU6668)]", "°C", 0.18),
    ("Cc1ccc(-n2nc(C(C)(C)C)cc2NC(=O)NCc2cc(F)ccc2Oc2ccc3c(cnn3CCO)c2)cc1", "°C", 0.65),
    ("Cc1c(C(=O)N2CCOc3ccc(-c4ccc(N)nc4)cc3C2)ccc(S(C)(=O)=O)c1F", "°C", 0.01),
    ("CCN(CC)CCCC(C)Nc1ccnc2cc(Cl)ccc12 (stereo unspecified) [Chloroquine Phosphate]", "°C", 0.14),
    ("c1nc2c(NC3CCCCC3)nc(Nc3ccc(N4CCOCC4)cc3)nc2[nH]1", "°C", 0.47),
    ("O=C1NC(=O)[C@@H](c2cn3c4c(cccc24)CCC3)[C@@H]1c1c[nH]c2ccccc12 [Tivantinib (ARQ 197)]", "°C", 0.15),
    ("CN1CCN(c2ccc3nc(-c4c(N)c5c(F)cccc5[nH]c4=O)[nH]c3c2)CC1 [Dovitinib (TKI-258) Dilactic Acid]", "°C", 4.46),
    ("CC(C)CC(=O)Nc1n[nH]c2c1CN(C(=O)C1CCN(C)CC1)C2(C)C", "°C", 0.4),
    ("C=CC(=O)N1CC[C@@H](Oc2nc(Nc3ccc(N4CCC(N5CCN(C)CC5)CC4)cc3)c(C(N)=O)nc2CC)C1", "°C", 4.44),
    ("COc1ccc(S(=O)(=O)N(C(C)=O)c2ccccc2/C=C/c2cc[n+]([O-])cc2)cc1", "°C", 0.77),
    ("Cc1ccccc1-n1c(Cn2nc(-c3cccc(O)c3)c3c(N)ncnc32)nc2cccc(C)c2c1=O", "°C", 0.02),
    ("CS(=O)(=O)CCNCc1ccc(-c2ccc3ncnc(Nc4ccc(OCc5cccc(F)c5)c(Cl)c4)c3c2)o1", "°C", 1.97),
    ("Cc1cc(C(C)Nc2ccccc2)c2nc(N3CCOCC3)cc(=O)n2c1 (stereo unspecified)", "°C", 0.5),
    ("C=C(C)[C@@H]1CC[C@]2(C)CC[C@]3(C)[C@H](CC[C@@H]4[C@@]5(C)CC[C@H](O)C(C)(C)[C@@H]5CC[C@]43C)[C@@H]12", "°C", 0.32),
    ("Cc1ccc(NC(=O)c2ccc(CN3CCN(C)CC3)cc2)cc1Nc1nc(-c2cccnc2)cs1", "°C", 0.92),
    ("CNS(=O)(=O)C[C@H]1CC[C@H](N(C)c2[nH]cnc3nccc2-3)CC1", "°C", 0.3),
    ("CCN(CC)CCNC(=O)c1c(C)[nH]c(/C=C2\\C(=O)Nc3ccc(-c4csc(-c5ccccc5)n4)cc32)c1C", "°C", 5.39),
    ("O=C(NOC[C@H](O)CO)c1ccc(F)c(F)c1Nc1ccc(I)cc1F", "°C", 0.49),
    ("Nc1nccc(Oc2ccc3c(C(=O)Nc4cccc(C(F)(F)F)c4)cccc3c2)n1", "°C", 0.88),
    ("O=C(O)c1ccc2c3c1cccc3c(=O)n1c3ccccc3nc21", "°C", 0.69),
    ("CCn1nc(C2CCN(C(=O)CCO)CC2)nc1-c1cnc(N)c(-c2nnc(C(C)(C)C)o2)n1", "°C", 0.81),
    ("CNC(=O)c1cc(Oc2ccc3nc(N[C@@H]4CCCC[C@H]4O)sc3c2)ccn1", "°C", 1.18),
    ("CC(C)(C)c1cnc(CSc2cnc(NC(=O)C3CCNCC3)s2)o1", "°C", 3.68),
    ("COc1cc(OC)c(C=C2C(=O)Nc3ccccc32)c(OC)c1", "°C", 1.24),
    ("O=S(=O)(NCCNC/C=C/c1ccc(Br)cc1)c1cccc2cnccc12", "°C", 3.17),
    ("C[C@]1(O)C[C@@H](c2nc(-c3ccc4ccc(-c5ccccc5)nc4c3)c3c(N)nccn32)C1", "°C", 0.14),
    ("CC(=O)O/N=C1/C(c2c(O)[nH]c3cc(Br)ccc23)=Nc2ccccc21", "°C", -2.37),
]
